B1: HDV Ribozyme (parent)
chain: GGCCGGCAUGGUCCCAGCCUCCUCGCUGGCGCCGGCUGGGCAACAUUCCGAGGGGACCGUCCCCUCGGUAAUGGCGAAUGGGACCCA

- Variants of: B1
- Protocol Text: self-cleavage, relative activity (ratio to wild type); higher = more cleavage; co-transcriptional
Endpoint Name: self-cleavage

Residue String: GGCCGGCAUGGUCCCAGCCUCCUCGCUGGCGCCGGCUGGGCAACAUUCCGAGGGGACCGUCCCCUCGGUAAUGGCGCAUGGGUCCCA [A77C A83U]
Recorded Result: 0.312

Residue String: GGCCGGCAUGGUGCCAGCCUCCUCGCUGACGCCGGCUGGGCAACAUUCCGAGGGGACCGUCCCCUCGGUAAUGGCGAAUGGGACCCA [C13G G29A]
Recorded Result: 0.0573

Residue String: GGCCGGCAUGGUCCCAGCCUCCUCGCUGGCGCCGGCUGGGCAACAUUCCGGGGGGACCGUCCCCUCGGUAUUGGCGAAUGGGACCCA [A51G A71U]
Recorded Result: 0.629

Residue String: GGUCGGCAUGGUCCCAACCUCCUCGCUGGCGCCGGCUGGGCAACAUUCCGAGGGGACCGUCCCCUCGGUAAUGGCGAAUGGGACCCA [C3U G17A]
Recorded Result: 0.361

Residue String: GGUCGGCAUGGUCCCAGCCUCCUCGCUGGCGCCGGCUGGGCAACAUUCCGAGGGGACCGUCCCCUCGGUAAUGGCGAAUAGGACCCA [C3U G80A]
Recorded Result: 0.175

Residue String: GGCCGGCAUGGUCCCAGCCUCCUCGCUGGCGCUGGCUGGGCAACAUUCCGAGGGGACCGUCCGCUCGGUAAUGGCGAAUGGGACCCA [C33U C63G]
Recorded Result: 0.698

Residue String: GGCCGGCAUGGUCCCAGCCUCCUCGCUCGCGCCGGCUGGGCAACAUUCCGAGGGGACCGUCCCCUCGGUAAGGGCGAAUGGGACCCA [G28C U72G]
Recorded Result: 0.138

Residue String: GGCCGGCAUGGUCCCAGCCUCCUCGCUGGCGCCGGCUGGGCAACAUUCCGAGUGGACCGUCCCCUCGGCAAUGGCGAAUGGGACCCA [G53U U69C]
Recorded Result: 0.931

Residue String: GGCCGGCAUGGUCCCAGCCUCCUCGCUGGCGCCGGCUGGGCAACAAUCCGAGGGGACCGUCCCCUCGGUCAUGGCGAAUGGGACCCA [U46A A70C]
Recorded Result: 0.831

Residue String: GGCCGGCAUGGUCCCAGCCUCCUCGCUGGCGCCGGCUGGGCAACACUCCGAGGGGACCAUCCCCUCGGUAAUGGCGAAUGGGACCCA [U46C G59A]
Recorded Result: 0.776

Residue String: GGCCGGCAUGGUCCCAGCCUCCUCGCUGGCGCCGGCUGGGCAACACUCUGAGGGGACCGUCCCCUCGGUAAUGGCGAAUGGGACCCA [U46C C49U]
Recorded Result: 0.73

Residue String: GGCCGGCAUGGUCCCAGCCUCCUCGCUGGCGCCGGCUGGGCAACAUUCCGAGGAGCCCGUCCCCUCGGUAAUGGCGAAUGGGACCCA [G54A A56C]
Recorded Result: 1.03

Residue String: GGCCGGCAUGCUCCCAGCCUCCUCGCUGGCGCCGGCUGGGCAACAUUCCGAGGGGACCGUCCACUCGGUAAUGGCGAAUGGGACCCA [G11C C63A]
Recorded Result: 0.314

Residue String: GGCCGGCAUGGUCCCAGCCUCCUCGCUGGCGCCGGCUGGGGAACAUUCCGAGGGGACCGUCCCUUCGGUAAUGGCGAAUGGGACCCA [C41G C64U]
Recorded Result: 0.853

Residue String: GGCCGGCAUGGUCCGAGCCUCCUCGCUGGCGCCGGCUGGGCAACAUUCCGAGGGGACCGUCCCCUCGGUUAUGGCGAAUGGGACCCA [C15G A70U]
Recorded Result: 0.415

Residue String: GGCCGGCAAGGUCCCAGCCUCCUCGCUGGCGCCGGCUGGGCAACAUUCCGAGGGGACCGUCCCCUCGGUAAUGGCCAAUGGGACCCA [U9A G76C]
Recorded Result: 1.07

Residue String: GGCCGGCAUGGUCCCUGCCUCAUCGCUGGCGCCGGCUGGGCAACAUUCCGAGGGGACCGUCCCCUCGGUAAUGGCGAAUGGGACCCA [A16U C22A]
Recorded Result: 0.604

Residue String: GGCCGGCAUGGUCCCAGCUUCCUCGCUGGCGCCGGCUGGGCAACAUUCCGAGGGGACCGUCCCCUCGGUAAUGGCGAAUGAGACCCA [C19U G81A]
Recorded Result: 0

Residue String: GGCCGGCAAGGUCCCAGCCUCCUCGCUGGCGCCGGCUGGGCAACAUUCCGAGGGGACCGUCCCCUCGGAAAUGGCGAAUGGGACCCA [U9A U69A]
Recorded Result: 0.87

Residue String: GGACGGCAUGGUCCCAGCCUCCUCGCUGGCGCCGGCUGGGCAACAUUCCCAGGGGACCGUCCCCUCGGUAAUGGCGAAUGGGACCCA [C3A G50C]
Recorded Result: 0.572

Residue String: GGCCGGCAUGGUCCCAGCCUCCUCGCUGGCGCCGGCUGGGCAACAUUCCGAGGGGACCGUCCCCUCGGUAACGGCGAAUGCGACCCA [U72C G81C]
Recorded Result: 0.271

Residue String: GGCCGGCAUGGUCCCAGCCUCCUCGCUGGCGCCGGCUGGGCGACAUUCCGAGGGGACCGUCCCCUCGGUAAUGGCGAAUGGGACUCA [A42G C85U]
Recorded Result: 0.767
